I'd be grateful if you could share measured GRmax, 72 h for these entries.
System: ZR751
assay.explanation: GRmax, 72 h; higher = less effect;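 note: breast cell lines in 384-well plates, nine doses across a 10^4 range, Dye Drop imaging of viable cells vs DMSO and time-zero plates, GR 0 means no net growth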
// units = GR; emit number, no label

Lookup: Query: GRmax, 72 h; subject: CO[C@@H](C)Cn1c(=O)n(C)c2cnc3ccc(-c4cncc(C(C)(C)O)c4)cc3c21 (max 10 µM)
Found: -0.117

Lookup: State the recorded GRmax, 72 h for this entry: CC(C)NC[C@@H](C(=O)N1CCN(c2ncnc3c2[C@H](C)C[C@H]3O)CC1)c1ccc(Cl)cc1 [Ipatasertib/GDC0068] (max 10 µM)
Found: 0.608

Lookup: GRmax, 72 h for CC[C@@H]1C(=O)N(C)c2cnc(Nc3ccc(C(=O)N[C@H]4CC[C@H](N5CCN(CC6CC6)CC5)CC4)cc3OC)nc2N1C(C)C [Volasertib/BI6727] (max 1 µM) ?
Found: -0.17
